Data origin, for the record: ChEMBL document CHEMBL3085693

biological target: Replication protein A 70 kDa DNA-binding subunit (Homo sapiens, UniProt P27694); assay: Displacement of FITC-ATRIP2 from RPA70N (1 to 120) (unknown origin) by FPA assay
Sequence (P27694 whole entry, the tested form may be a part): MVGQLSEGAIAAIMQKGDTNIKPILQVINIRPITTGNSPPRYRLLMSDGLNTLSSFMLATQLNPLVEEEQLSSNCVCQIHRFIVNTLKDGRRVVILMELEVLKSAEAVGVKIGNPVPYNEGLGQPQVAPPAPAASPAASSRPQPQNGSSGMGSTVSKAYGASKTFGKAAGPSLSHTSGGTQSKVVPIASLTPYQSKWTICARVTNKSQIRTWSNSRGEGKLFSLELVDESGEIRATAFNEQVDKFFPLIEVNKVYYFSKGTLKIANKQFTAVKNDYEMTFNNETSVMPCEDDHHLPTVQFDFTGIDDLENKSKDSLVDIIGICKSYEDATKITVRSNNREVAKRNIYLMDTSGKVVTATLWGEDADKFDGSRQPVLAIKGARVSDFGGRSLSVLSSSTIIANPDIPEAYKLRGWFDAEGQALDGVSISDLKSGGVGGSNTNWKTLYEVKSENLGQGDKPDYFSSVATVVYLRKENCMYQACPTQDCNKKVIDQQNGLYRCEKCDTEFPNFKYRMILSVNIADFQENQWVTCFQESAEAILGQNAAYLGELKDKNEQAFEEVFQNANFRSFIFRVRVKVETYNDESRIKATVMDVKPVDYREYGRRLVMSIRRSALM
pKd: −log10 of the molar value.

>  <SMILES STRING>
O=C(O)c1cc(-c2ccc(CNC(=S)c3ccc(-c4ccc(C(=O)O)o4)cc3Cl)cc2)n(-c2ccc(Cl)c(Cl)c2)n1

>  <TEST TARGET>
Replication protein A 70 kDa DNA-binding subunit (Homo sapiens, UniProt P27694)

>  <pKd>
6.72

$$$$

----------
molecular target: Replication protein A 70 kDa DNA-binding subunit (Homo sapiens); test: Displacement of FITC-ss-DNA from RPA70AB domain (unknown origin) by FPA assay
ASSAY METRIC: Kd

>  <SMILES STRING>
O=C(O)c1cc(-c2ccc(CNC(=S)c3ccc(-c4ccc(C(=O)O)o4)cc3Cl)cc2)n(-c2ccc(Cl)c(Cl)c2)n1

>  <REPORTED VALUE>
5.2 µM

$$$$
